Experiment: qHTS assay to identify small molecule agonists of the hypoxia (HIF-1) signaling pathway - cell viability counter screen (AID 1224844); further: nearly all actives have a fitted effect of over 50% in size
Conditions: HRE-bla ME-180 viability, CellTiter-Glo luminescence, 17 h; series mostly up to 76.8 µM
Inconclusive results are not listed. Calls of active or inactive are those of the source. The call rests on the fitted dose curve.
Answer with one of the outcomes given here: true (active), false (inactive)

Ask: Hey, what did the test say about `CC1=CC[C@@H](C(C)(C)O)CC1` ?
Result: false

Ask: What is the recorded call for this compound in the test? CCOC(=O)C1=NN(c2ccc(Cl)cc2Cl)C(C)(C(=O)OCC)C1 (stereo not given)
Result: false

Ask: What did the test return for `O=C1C=CC(=O)N1c1cccc(N2C(=O)C=CC2=O)c1` ?
Result: true

Ask: GET /call?item= `Cn1c(=O)[nH]c2ncn(C)c2c1=O` returns the recorded outcome of this test.
Result: false

Ask: Test call for this compound, please: `CCc1cccc(CC)c1`
Result: false

Ask: What call does the record list for `O=[N+]([O-])c1ccc(CO)cc1` ?
Result: false

Ask: Which outcome was entered for the compound CC1CCC(C(C)(C)O)CC1 (stereo not given) in this test?
Result: false

Ask: Which outcome was assigned to CC(C=O)c1ccccc1 (stereo not given) in this test?
Result: false

Ask: Recorded test call requested for `COC(=O)c1ccc([N+](=O)[O-])cc1`
Result: false

Ask: Fill in: this test's call for `Oc1ccc2c(c1)CCC2` is ___
Result: false

* * *

Assay: qHTS assay for small molecules that induce genotoxicity in human embryonic kidney cells expressing luciferase-tagged ATAD5 - cell viability (AID 651634); further: nearly all actives have a fitted effect of over 25% in size; further: potency means the concentration at half of the fitted maximal effect
Conditions: HEK293T ATAD5-luc cells viability, CellTiter-Fluor, 15.5 h; series mostly up to 83.3 µM
Inconclusive results are not listed. Active and inactive are the calls of the source. Calls follow the shape of the full dose curve. Non-standard residues stand in square brackets, D forms with d. Residues, ends and D or L forms follow the SMILES beside them. Orn = NCCC[C@H](N)C(=O)O
value kind: Potency

- molecule: "O=P(O)(O)CP(=O)(O)O"
  value reported: "inactive"
- molecule: "CC(C)C[C@@H]1NC(=O)[C@H](CCCN)NC(=O)[C@H](C(C)C)NC(=O)[C@@H]2CCCN2C(=O)[C@@H](Cc2ccccc2)NC(=O)[C@H](CC(C)C)NC(=O)[C@H](CCCN)NC(=O)[C@H](C(C)C)NC(=O)[C@@H]2CCCN2C(=O)[C@@H](Cc2ccccc2)NC1=O (cyclo(V[Orn]L[dF]PV[Orn]L[dF]P))"
  value reported: "2980 nM (active)"
- molecule: "O=C(O)COc1ccccc1/C=N/NC(=O)c1ccncc1"
  value reported: "inactive"

* * *

Target: Nuclear receptor subfamily 1 group I member 3 (Homo sapiens) (UniProt Q14994)
Sequence (Q14994 whole entry, looked up): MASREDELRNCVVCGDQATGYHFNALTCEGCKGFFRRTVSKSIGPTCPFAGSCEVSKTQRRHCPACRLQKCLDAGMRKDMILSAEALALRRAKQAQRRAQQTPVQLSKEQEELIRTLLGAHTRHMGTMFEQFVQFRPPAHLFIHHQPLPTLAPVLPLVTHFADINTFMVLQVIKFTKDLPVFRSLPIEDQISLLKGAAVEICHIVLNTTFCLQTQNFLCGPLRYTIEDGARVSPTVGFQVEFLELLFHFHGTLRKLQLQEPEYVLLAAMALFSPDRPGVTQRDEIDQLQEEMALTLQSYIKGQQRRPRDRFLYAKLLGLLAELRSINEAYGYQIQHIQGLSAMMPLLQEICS
Experiment: qHTS assay to identify small molecule antagonists of the constitutive androstane receptor (CAR) signaling pathway (AID 1224838);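 further: HepG2 cells stably expressing hCAR with CYP2B6 luciferase reporter stimulated by CITCO; nearly all actives have a fitted effect of over 40% in size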
Settings: HepG2-CYP2B6-hCAR luciferase, CITCO-stimulated, 24 h; series mostly up to 92.4 µM
Results filed as inconclusive are left out. Calls of active or inactive are those of the source. Calls follow the shape of the dose curve; as a rule, active = well fitted inhibition curve with a large enough effect in the repeat runs; inconclusive = weak or mixed curves, or effect the other way; inactive = no such curve, though single readings can be large or run the other way.

- structure smiles: "O=C(N[C@H](CO)[C@H](O)c1ccc([N+](=O)[O-])cc1)C(Cl)Cl"
  outcome: "inactive"
- structure smiles: "O=c1[nH]cccc1O"
  outcome: "inactive"
- structure smiles: "CCCCCc1ccc(O)cc1"
  outcome: "inactive"
- structure smiles: "CCCCCCCCCC[N+](C)(CCCCCCCCCC)CCC[Si](OC)(OC)OC"
  outcome: "inactive"

* * *

Test: A CellTox Green Cytotoxicity Assay to monitor cytotoxicity in HEK293 cells - 24 hour (AID 1224875); further: nearly all actives have a fitted effect of over 45% in size
Conditions: CellTox Green fluorescence; series mostly up to 76.8 µM
Inconclusive results are not listed. The source made the active and inactive calls. Calls come from the whole dose curve; as a rule, active = well fitted activation curve with a large enough effect in the repeat runs; inconclusive = weak or mixed curves; inactive = flat fitted curve, though single readings scatter.
Choose the fitting class; nothing outside True for active, False for inactive is accepted.

- compound: "CCC(C)(C)c1ccc(CC(C)CN2C[C@@H](C)O[C@@H](C)C2)cc1 (stereo partly drawn)"
  class: "True"
- compound: "O=S(=O)(c1ccc(OCc2ccccc2)cc1)c1ccccc1O"
  class: "False"

Ask: Record request — test call for `c1ccc(-c2ccccc2-c2ccccc2)cc1`
Result: False

Ask: Can you look up the reported call for `C=Cc1ccc(O)c(OC)c1` for me?
Result: False

Ask: Per the assay record, what outcome was assigned to `O=C(c1ccccc1)c1ccc(Cl)cc1` ?
Result: False

Ask: Fill in: this test's call for `CN1CCN(CCCN2c3ccccc3Sc3ccc(C(F)(F)F)cc32)CC1` is ___
Result: True

Ask: GET /call?item= `COc1cc(/C=C/C(=O)CC(=O)/C=C/c2ccc(O)c(OC)c2)ccc1O` returns the recorded outcome of this test.
Result: True

Ask: Please share the test call associated with `CCn1c2ccccc2c2ccccc21` .
Result: False

Ask: Field: outcome | Entry: CCC1(C)C(=O)N(Cl)C(=O)N1Cl (stereo not drawn)
Result: False

Ask: What did the test return for `CCCCCN=C(N)N/N=C/c1c[nH]c2ccc(OC)cc12` ?
Result: True

Ask: State the result this test recorded for CCc1cccc(C)c1N(C(=O)CS(=O)(=O)O)C(C)COC (stereo not drawn) .
Result: False

Ask: Hi, do you know how `Nc1ccc(Oc2cccc(Oc3ccc(N)cc3)c2)cc1` came out in this test?
Result: False

Ask: Please state the recorded outcome for this compound: `CCOc1ccc([N+](=O)[O-])cc1`
Result: True

* * *

Experiment: qHTS assay to identify small molecule agonists of the hypoxia (HIF-1) signaling pathway - cell viability counter screen (AID 1224844); further: nearly all actives have a fitted effect of over 50% in size
Conditions: HRE-bla ME-180 viability, CellTiter-Glo luminescence, 17 h; series mostly up to 76.8 µM
Results filed as inconclusive are left out. Activity calls are given as the source filed them. The call rests on the fitted dose curve.
Form entry, call: pick from active, inactive

- compound: "NC(=O)c1ccccc1Cl"
  class: "inactive"

Ask: Recorded test call requested for CCc1cccc(C)c1N(C(=O)C(=O)O)C(C)COC (centres undefined)
Result: inactive

Ask: Please indicate how the test categorized `CCCCCCCCSCc1cc(C)c(O)c(CSCCCCCCCC)c1` .
Result: inactive

Ask: What outcome does the record of this test show for `NCc1ccco1` ?
Result: inactive

Ask: Record request — test call for `CN(C)CCOc1ccc(/C(=C(/CCCl)c2ccccc2)c2ccccc2)cc1`
Result: active

Ask: Check the results log: what was the call for `CC1(C)[C@H]2CC[C@]1(C)C(=O)C2` ?
Result: inactive

Ask: Status in this test for `ClC(c1ccccc1)(c1ccccc1)c1ccccc1` ?
Result: inactive

Ask: Lab log entry: `C[C@H]1O[C@@H](O[C@H]2CC[C@@]3(C)[C@H](CC[C@@H]4[C@@H]3C[C@@H](O)[C@]3(C)[C@@H](C5=CC(=O)OC5)CC[C@]43O)C2)C[C@H](O)[C@@H]1O[C@H]1C[C@H](O)[C@H](O[C@H]2C[C@H](O)[C@H](O[C@@H]3O[C@H](CO)[C@@H](O)[C@H](O)[C@H]3O)[C@@H](C)O2)[C@@H](C)O1` — outcome as called in the assay?
Result: active

Ask: What is the recorded call for this compound in the test? `c1ccc(C[P+](c2ccccc2)(c2ccccc2)c2ccccc2)cc1`
Result: inactive

* * *

Experiment: qHTS assay to identify small molecule agonists of the farnesoid-X-receptor (FXR) signaling pathway - cell viability counter screen (AID 743218); further: nearly all actives have a fitted effect of over 45% in size
Details: FXR-bla HEK293T viability, CellTiter-Glo luminescence, 16 h; series mostly up to 62.6 µM
Records with an inconclusive call do not appear. Active and inactive are the calls of the source. The call rests on the fitted dose curve; in most records, active means well fitted cell-killing curve with a large enough effect in the repeat runs; inconclusive means weak or mixed curves, or effect the other way; inactive means no such curve, though single readings can be large or run the other way.
Classes to choose from: class 1 for active, class 0 for inactive

Consider the following illustrative entries.
- compound: "SC1CCCCC1"
  class: "class 0"
- compound: "Cc1cc(Br)ccc1NC(=O)CCl"
  class: "class 1"
- compound: "CN(C[C@@H](CC[N+]12CCC(C3CCCCC3)(CC1)CC2)c1ccc(Cl)c(Cl)c1)C(=O)c1cc(C(F)(F)F)cc(C(F)(F)F)c1"
  class: "class 1"
- compound: "O=C1CCC/C=C\\CCCCCCCCCC1"
  class: "class 0"
- compound: "CN1CCN(CCCN2c3ccccc3Sc3ccc(Cl)cc32)CC1"
  class: "class 1"

Ask: Give the logged outcome of this assay for the following compound: `CC(C)c1ccc2sc3ccccc3c(=O)c2c1`
Result: class 0

Ask: Any idea what this test logged for CC(Cc1ccc(O)c(O)c1)C(C)Cc1ccc(O)c(O)c1 (configuration not stated) ?
Result: class 0

* * *

Biological target: Cytochrome P450 2D6 (Homo sapiens)
Assay: Cytochrome P450 Family 2 Subfamily D Member 6 (CYP2D6) small molecule antagonists: luciferase reporter qHTS assay (AID 1671196); further: nearly all actives have a fitted effect of over 50% in size
Settings: P450-Glo CYP2D6 enzyme assay, luciferin luminescence, 1 h; series mostly up to 115 µM
Records with an inconclusive call do not appear. Active and inactive are the calls of the source. Calls follow the shape of the dose curve; as a rule, active = well fitted inhibition curve with a large enough effect in the repeat runs; inconclusive = weak or mixed curves; inactive = no such curve, though single readings can be large or run the other way.
Your response should consist of one outcome taken from active, inactive

# example entries with known answers
- compound: "CN1CCN(c2ccccc2/C=C2\\SCCN(c3ccc(Cl)c(Cl)c3)C2=O)CC1"
  class: "active"
- compound: "N#CCCOCCC#N"
  class: "inactive"
- compound: "CO[Si](OC)(c1ccccc1)c1ccccc1"
  class: "inactive"
- compound: "[Cl][Sc]([Cl])[Cl]"
  class: "inactive"
- compound: "NC(=O)c1ccccc1Cl"
  class: "inactive"
- compound: "Clc1nc(C(Cl)(Cl)Cl)c(Cl)c(Cl)c1Cl"
  class: "active"
- compound: "CN(C/C=C/c1ccccc1)Cc1cccc2ccccc12"
  class: "active"
- compound: "CCc1cccc(C)c1N(C(=O)CS(=O)(=O)O)C(C)COC (stereo not drawn)"
  class: "inactive"
- compound: "CC(C)(c1ccc(Oc2ccc(N)cc2)cc1)c1ccc(Oc2ccc(N)cc2)cc1"
  class: "inactive"
- compound: "Cc1cccc(C)c1C"
  class: "inactive"

Moving on to another compound below.
Ask: Assay outcome for `CCOC(=O)[C@H](C)O` : what was it?
Result: inactive
